Quick reference: koff of the listed items.
target: T1, human programmed cell death protein 1 (hPD-1) C93S (aa 24-167) (Homo sapiens, UniProt Q15116, C93S); assay: SPR; Carterra LSA; Fab from the ammonium sulfate precipitate of the culture supernatant immobilised on a NiHC200M chip; hPD-1 (1-1024 nM) or mPD-1-Fc (4-1024 nM) as analyte, fourfold dilution series, no regeneration; HBS-EP pH 7.4, 25 °C; medians over the spots of a construct, KD = koff/kon; details: one partner purified
T1 construct: made as a fusion with a TEV site and human Fc; the Fc was cut off with TEV protease; source: Expi293F, purified (Protein A, TEV cleavage of Fc, SEC; monomer fractions); not shown: Fc (human), C-terminal, cleaved
T1 sequence (Q15116 24-167 C93S): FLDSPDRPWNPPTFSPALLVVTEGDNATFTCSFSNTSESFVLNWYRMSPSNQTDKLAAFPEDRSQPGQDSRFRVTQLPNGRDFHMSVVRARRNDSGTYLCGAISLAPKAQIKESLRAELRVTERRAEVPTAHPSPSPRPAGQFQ

Consider the worked cases shown below.
toripalimab Fab H.D113A (Fab, V domains shown, heavy chain of Sm3 with this change; numbers count from the chain's first residue; as the light chain of Sm3; source: Brevibacillus, culture supernatant (ammonium sulfate precipitate); not shown: 6xHis, C-terminal, kept; 6xHN, C-terminal, kept) VH: QGQLVQSGAEVKKPGASVKVSCKASGYTFTDYEMHWVRQAPIHGLEWIGVIESETGGTAYNQKFKGRVTITADKSTSTAYMELSSLRSEDTAVYYCAREGITTVATTYYWYFAVWGQGTTVTVSS VL: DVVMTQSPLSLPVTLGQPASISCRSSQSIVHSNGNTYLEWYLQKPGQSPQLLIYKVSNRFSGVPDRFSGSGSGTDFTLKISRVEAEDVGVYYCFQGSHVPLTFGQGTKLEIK : < 1e-05 s⁻¹
toripalimab Fab L.N58A (Fab, V domains shown, as the heavy chain of Sm3; light chain of Sm3 with this change; numbers count from the chain's first residue; source: Brevibacillus, culture supernatant (ammonium sulfate precipitate); not shown: 6xHis, C-terminal, kept; 6xHN, C-terminal, kept) VH: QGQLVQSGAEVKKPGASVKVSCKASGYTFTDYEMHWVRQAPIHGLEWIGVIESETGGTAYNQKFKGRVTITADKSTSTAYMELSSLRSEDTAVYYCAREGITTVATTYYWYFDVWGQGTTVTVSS VL: DVVMTQSPLSLPVTLGQPASISCRSSQSIVHSNGNTYLEWYLQKPGQSPQLLIYKVSARFSGVPDRFSGSGSGTDFTLKISRVEAEDVGVYYCFQGSHVPLTFGQGTKLEIK : < 1e-05 s⁻¹

With those in mind, consider the next binder.
query: Form field: reported koff of toripalimab Fab L.Q27A (Fab, V domains shown, as the heavy chain of Sm3; light chain of Sm3 with this change; numbers count from the chain's first residue; source: Brevibacillus, culture supernatant (ammonium sulfate precipitate); not shown: 6xHis, C-terminal, kept; 6xHN, C-terminal, kept) VH: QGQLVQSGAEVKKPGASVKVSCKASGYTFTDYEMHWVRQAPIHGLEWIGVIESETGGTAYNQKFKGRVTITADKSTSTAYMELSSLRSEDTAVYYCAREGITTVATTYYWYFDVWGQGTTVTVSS VL: DVVMTQSPLSLPVTLGQPASISCRSSASIVHSNGNTYLEWYLQKPGQSPQLLIYKVSNRFSGVPDRFSGSGSGTDFTLKISRVEAEDVGVYYCFQGSHVPLTFGQGTKLEIK
result: < 1e-05 s⁻¹

The reported numbers originate from paper PMC10663500.
